Experiment: Phase 1 single dose escalation pharmacokinetics
Settings: male, human, plasma, po, 80 mg
readout kind: concentration at 24 h (ng/mL)
Write the number in ng/mL without appending the unit.

Record O=S1(=O)c2ccc(F)cc2Oc2cc(OCC(F)(F)F)ccc21 [CX157] , field concentration at 24 h: 5.5

----------
Experiment: Phase I 14-day twice-daily pharmacokinetics
Conditions: human, plasma, oral, 40 mg, C12h, healthy volunteers, 40 mg twice daily, Day 14, mean, N = 4
readout kind: concentration at 12 h (ng/mL)
Write the number in ng/mL without appending the unit.

Record O=S1(=O)c2ccc(F)cc2Oc2cc(OCC(F)(F)F)ccc21 [CX157] , field concentration at 12 h: 8.8
